- Subject of test: Ylr278c (UniProt Q05854)
- Sequence (Q05854 whole entry): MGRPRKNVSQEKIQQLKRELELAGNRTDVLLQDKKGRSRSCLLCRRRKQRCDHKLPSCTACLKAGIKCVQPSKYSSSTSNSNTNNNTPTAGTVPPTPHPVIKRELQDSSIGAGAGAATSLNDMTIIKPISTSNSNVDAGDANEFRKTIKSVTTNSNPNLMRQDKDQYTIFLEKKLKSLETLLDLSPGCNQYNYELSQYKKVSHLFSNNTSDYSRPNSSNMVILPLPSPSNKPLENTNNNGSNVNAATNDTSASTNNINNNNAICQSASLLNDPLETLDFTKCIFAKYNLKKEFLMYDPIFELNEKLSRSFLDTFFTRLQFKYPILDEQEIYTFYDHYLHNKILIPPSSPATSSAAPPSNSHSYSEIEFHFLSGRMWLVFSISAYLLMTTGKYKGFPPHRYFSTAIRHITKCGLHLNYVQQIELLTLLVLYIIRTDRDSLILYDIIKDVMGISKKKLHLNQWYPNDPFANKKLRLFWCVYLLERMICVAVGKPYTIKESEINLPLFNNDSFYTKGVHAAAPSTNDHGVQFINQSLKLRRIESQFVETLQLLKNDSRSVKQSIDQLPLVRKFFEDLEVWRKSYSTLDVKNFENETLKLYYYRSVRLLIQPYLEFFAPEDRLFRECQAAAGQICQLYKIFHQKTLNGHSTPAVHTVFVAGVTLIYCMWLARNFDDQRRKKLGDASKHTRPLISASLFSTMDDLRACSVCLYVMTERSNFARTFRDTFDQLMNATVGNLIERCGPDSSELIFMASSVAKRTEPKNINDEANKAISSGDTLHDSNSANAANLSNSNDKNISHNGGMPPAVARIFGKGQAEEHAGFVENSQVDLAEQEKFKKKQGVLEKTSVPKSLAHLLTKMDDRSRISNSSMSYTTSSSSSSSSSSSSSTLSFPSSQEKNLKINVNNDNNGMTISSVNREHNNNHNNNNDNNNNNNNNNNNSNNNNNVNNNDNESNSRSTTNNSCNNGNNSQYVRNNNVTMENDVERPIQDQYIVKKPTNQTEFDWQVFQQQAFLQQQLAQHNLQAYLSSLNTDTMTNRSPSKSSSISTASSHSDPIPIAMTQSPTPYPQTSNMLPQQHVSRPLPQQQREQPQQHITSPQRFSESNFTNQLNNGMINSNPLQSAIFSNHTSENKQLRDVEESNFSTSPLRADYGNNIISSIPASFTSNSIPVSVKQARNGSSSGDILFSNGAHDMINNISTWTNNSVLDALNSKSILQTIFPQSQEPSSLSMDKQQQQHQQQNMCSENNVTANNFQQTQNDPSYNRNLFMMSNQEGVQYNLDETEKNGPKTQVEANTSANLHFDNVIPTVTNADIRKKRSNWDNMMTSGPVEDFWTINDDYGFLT
- Procedure summary: PBM E-score (8-mer binding enrichment) (E-score (-0.5 to 0.5)); higher = stronger / more preferred TF binding
- Conditions: protein concentration: 200 nM; construct: GST-DNA-binding domain
Whole data set: some 33,000 sequences, median “E-score (-0.5 to 0.5)” near -0.054, cut for the highest 2% near 0.39. The sample holds the highest values, similar sequences and a random draw of the others, so the mix is not that of the screen.
Below, each entry is listed with its recorded PBM E-score.
Respond with the number and no other words.

Example sequences with recorded PBM E-score:
Macromolecule sequence	PBM E-score
GGGGAGTA	0.0376
GATCGGAC	0.434
ACCGGCCT	0.179
CGTCTATC	0.0841
AATCGGCC	0.24
ACGGAGTA	0.452
CATCGGAG	0.457
GACGGCGC	0.169

Query: Output PBM E-score of CAGGAGTC
Response: 0.055

Query: Output PBM E-score of AATCGGGC
Response: 0.0936

Query: Output PBM E-score of CATCGGCA
Response: 0.284

Query: Output PBM E-score of ATCTAGTC
Response: 0.0095

Query: Output PBM E-score of CATCCGAA
Response: 0.303

* * *

- Subject of test: Ylr278c (UniProt Q05854)
- Procedure summary: PBM E-score (8-mer binding enrichment) (E-score (-0.5 to 0.5)); higher = stronger / more preferred TF binding
- Conditions: protein concentration: 200 nM; construct: GST-DNA-binding domain
Whole data set: some 33,000 sequences, median “E-score (-0.5 to 0.5)” near -0.054, cut for the highest 2% near 0.39. For the sample, the highest values were picked, then their nearest neighbours and some sequences at random.
Recorded metric: PBM E-score
Respond with the number and no other words.

Example sequences with recorded PBM E-score:
Macromolecule sequence	Subject of test	Result number
GCAACACC	Ylr278c (UniProt Q05854)	0.113
TAGCATAA	Ylr278c (UniProt Q05854)	-0.111
TCTCGAAA	Ylr278c (UniProt Q05854)	-0.21
AAGGTCAA	Ylr278c (UniProt Q05854)	-0.195
TATCGGCA	Ylr278c (UniProt Q05854)	0.264

Query: Output PBM E-score of GAGTCGCC
Response: 0.0773

Query: Output PBM E-score of TATCGGGA
Response: 0.288

Query: Output PBM E-score of AATCCACA
Response: -0.0935

* * *

Below, each entry is listed with its recorded PBM E-score.
- Subject of test: Ylr278c (UniProt Q05854)
- Procedure summary: PBM E-score (8-mer binding enrichment) (E-score (-0.5 to 0.5)); higher = stronger / more preferred TF binding
- Conditions: protein concentration: 200 nM; construct: GST-DNA-binding domain
The full ranking holds about 33,000 sequences; the median of “E-score (-0.5 to 0.5)” is about -0.054, and the highest 2% start at about 0.39. For the sample, the highest values were picked, then their nearest neighbours and some sequences at random.
Respond with the number and no other words.

Macromolecule sequence	PBM E-score
ACTTAAGG	-0.105
CGCTCTAG	-0.113
AACTGTGG	-0.0559

Query: Output PBM E-score of CAGAGAGC
Response: -0.184

Query: Output PBM E-score of CCCCTCAG
Response: -0.124

Query: Output PBM E-score of CGAGTCCA
Response: -0.144

Query: Output PBM E-score of CTCCGTGC
Response: 0.416

Query: Output PBM E-score of AGAGTCCG
Response: 0.347

Query: Output PBM E-score of CGGATCGA
Response: 0.19

Query: Output PBM E-score of CAAGTCCA
Response: -0.118

* * *

- Subject of test: Ylr278c (UniProt Q05854)
- Procedure summary: PBM E-score (8-mer binding enrichment) (E-score (-0.5 to 0.5)); higher = stronger / more preferred TF binding
- Conditions: protein concentration: 200 nM; construct: GST-DNA-binding domain
Over roughly 33,000 sequences, “E-score (-0.5 to 0.5)” has its median near -0.054; the highest 2% begin near 0.39. For the sample, the highest values were picked, then their nearest neighbours and some sequences at random.
Recorded metric: PBM E-score
Respond with the number and no other words.

Macromolecule sequence	PBM E-score
CCGCCGGC	0.41
CGGAAGTA	0.342
CCGCCGTA	0.354
AGGAATTA	0.0107
ACGCCGGA	0.432

Query: Please respond with reported PBM E-score (system Ylr278c (UniProt Q05854)) for GGGAATCA .
Response: -0.0137

Query: Please respond with reported PBM E-score (system Ylr278c (UniProt Q05854)) for CCGCCGCA .
Response: 0.266

Query: Please respond with reported PBM E-score (system Ylr278c (UniProt Q05854)) for GAATGCAA .
Response: 0.00843

Query: Please respond with reported PBM E-score (system Ylr278c (UniProt Q05854)) for CTGAATTC .
Response: -0.0397

Query: Please respond with reported PBM E-score (system Ylr278c (UniProt Q05854)) for AGGAATTC .
Response: -0.0584

Query: Please respond with reported PBM E-score (system Ylr278c (UniProt Q05854)) for ACGCCGGG .
Response: 0.365

Query: Please respond with reported PBM E-score (system Ylr278c (UniProt Q05854)) for CGGAATCA .
Response: 0.39

Query: Please respond with reported PBM E-score (system Ylr278c (UniProt Q05854)) for GCGCCGAA .
Response: 0.302

Query: Please respond with reported PBM E-score (system Ylr278c (UniProt Q05854)) for TACCCGCA .
Response: 0.157

Query: Please respond with reported PBM E-score (system Ylr278c (UniProt Q05854)) for CTCTGCTA .
Response: -0.128

Query: Please respond with reported PBM E-score (system Ylr278c (UniProt Q05854)) for AGGAATCA .
Response: -0.0846

* * *

- Subject of test: Ylr278c (UniProt Q05854)
- Procedure summary: PBM E-score (8-mer binding enrichment) (E-score (-0.5 to 0.5)); higher = stronger / more preferred TF binding
- Conditions: protein concentration: 200 nM; construct: GST-DNA-binding domain
Whole data set: some 33,000 sequences, median “E-score (-0.5 to 0.5)” near -0.054, cut for the highest 2% near 0.39. This is one part of a sample in which the highest values are shown more often than they occur.
Recorded metric: PBM E-score
Respond with the number and no other words.

Macromolecule sequence	Result number
ATTCCAAG	-0.077
GTAAACAA	-0.0542
ACAACTCC	0.295
ATACAGCA	-0.0117
ATGCCGAG	0.213
ACGGCCCC	-0.034
CATAGCCA	-0.115
CTTTCGGA	0.451

Query: Output PBM E-score of CCTCGGAC
Response: 0.374

Query: Output PBM E-score of ACTCGGAC
Response: 0.383

Query: Output PBM E-score of ACTCGGAT
Response: 0.251

Query: Output PBM E-score of CACTTCAC
Response: -0.0647

Query: Output PBM E-score of CAAAGCGG
Response: 0.175

Query: Output PBM E-score of GTTTCGTA
Response: 0.0178

Query: Output PBM E-score of ACAGGGCC
Response: 0.0175

Query: Output PBM E-score of GCTAAATA
Response: -0.231

Query: Output PBM E-score of ATTCCGAG
Response: 0.445

Query: Output PBM E-score of GCTAAGAC
Response: -0.0188

Query: Output PBM E-score of CCTCGGTA
Response: -0.0307

Query: Output PBM E-score of ATTCTCTA
Response: -0.0579

Query: Output PBM E-score of GATCCAGC
Response: 0.0556

Query: Output PBM E-score of GCTCCGCC
Response: 0.382

Query: Output PBM E-score of GCTCGGAA
Response: 0.338

Query: Output PBM E-score of CCATAAGC
Response: -0.105

Query: Output PBM E-score of CATCAAGC
Response: -0.0328

* * *

- Subject of test: Ylr278c (UniProt Q05854)
- Procedure summary: PBM E-score (8-mer binding enrichment) (E-score (-0.5 to 0.5)); higher = stronger / more preferred TF binding
- Conditions: protein concentration: 200 nM; construct: GST-DNA-binding domain
Whole data set: some 33,000 sequences, median “E-score (-0.5 to 0.5)” near -0.054, cut for the highest 2% near 0.39. This is one part of a sample in which the highest values are shown more often than they occur.
Below, each entry is listed with its recorded PBM E-score.
Respond with the number and no other words.

Example sequences with recorded PBM E-score:
Macromolecule sequence	Result number
AACCACTG	-0.136
CAAGATTG	-0.151
AGTGCGAG	-0.276
AGCGGAAA	0.358
GGCGGAGA	0.444

Query: Output PBM E-score of CGGGCCCA
Response: 0.091

Query: Output PBM E-score of ATCGGAAA
Response: 0.416

Query: Output PBM E-score of GTGGAGAA
Response: -0.0956

Query: Output PBM E-score of CGGGCCCG
Response: 0.398

Query: Output PBM E-score of ATATTTTC
Response: 0.0689

Query: Output PBM E-score of CGTCTCTC
Response: -0.00934
